B1: CPEB3 Ribozyme (parent)
chain: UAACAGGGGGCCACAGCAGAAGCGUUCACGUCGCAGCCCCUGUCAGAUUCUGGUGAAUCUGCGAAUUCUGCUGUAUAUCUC

variants of: B1; assay: self-cleavage, relative activity (ratio to wild type); higher = more cleavage; in vitro, sequencing
Binary call on self-cleavage: Met from 0.3 upward, Not met beneath that.

{"mutationDescriptor": "A35C C38A", "classLabel": "Not met"}
{"mutationDescriptor": "G7U U58C", "classLabel": "Not met"}
{"mutationDescriptor": "C12U A35C", "classLabel": "Met"}
{"mutationDescriptor": "A35G U72A", "classLabel": "Met"}
{"mutationDescriptor": "C32U A64U", "classLabel": "Not met"}
{"mutationDescriptor": "A64G G70A", "classLabel": "Met"}
{"mutationDescriptor": "A18C U49G", "classLabel": "Not met"}
{"mutationDescriptor": "C38U U76C", "classLabel": "Met"}
{"mutationDescriptor": "C23U A75G", "classLabel": "Not met"}
{"mutationDescriptor": "A2U G24U", "classLabel": "Met"}
{"mutationDescriptor": "U26G U41A", "classLabel": "Not met"}
{"mutationDescriptor": "G19A U67A", "classLabel": "Not met"}
{"mutationDescriptor": "C17G U72A", "classLabel": "Not met"}
{"mutationDescriptor": "A20C G30U", "classLabel": "Not met"}
{"mutationDescriptor": "A35C C50A", "classLabel": "Met"}
{"mutationDescriptor": "U41A A65U", "classLabel": "Not met"}
{"mutationDescriptor": "C40U U41G", "classLabel": "Not met"}
{"mutationDescriptor": "C4U G33A", "classLabel": "Met"}
{"mutationDescriptor": "A21G U51G", "classLabel": "Met"}
{"mutationDescriptor": "C71G U72C", "classLabel": "Met"}
{"mutationDescriptor": "C62U A65U", "classLabel": "Not met"}
{"mutationDescriptor": "U60C U74A", "classLabel": "Met"}
{"mutationDescriptor": "U25C C32U", "classLabel": "Not met"}
{"mutationDescriptor": "A21C U60C", "classLabel": "Not met"}
{"mutationDescriptor": "G19U U80C", "classLabel": "Not met"}
{"mutationDescriptor": "A18U C32A", "classLabel": "Not met"}
{"mutationDescriptor": "C29U C79A", "classLabel": "Met"}
{"mutationDescriptor": "A35U A57G", "classLabel": "Met"}
{"mutationDescriptor": "G9U A21G", "classLabel": "Not met"}
{"mutationDescriptor": "A47G G55U", "classLabel": "Met"}
{"mutationDescriptor": "A2U C62U", "classLabel": "Met"}
{"mutationDescriptor": "A18G C27U", "classLabel": "Met"}
{"mutationDescriptor": "U26C G55A", "classLabel": "Met"}
{"mutationDescriptor": "G30U U80C", "classLabel": "Not met"}
{"mutationDescriptor": "A45G A75G", "classLabel": "Met"}
{"mutationDescriptor": "U25A U69C", "classLabel": "Not met"}
{"mutationDescriptor": "G30U C38U", "classLabel": "Not met"}
{"mutationDescriptor": "A18U G52U", "classLabel": "Met"}
